Entries and their kon
Molecular target: human TNF (human, UniProt P01375 77-233)
Sequence (P01375 77-233 limits assumed): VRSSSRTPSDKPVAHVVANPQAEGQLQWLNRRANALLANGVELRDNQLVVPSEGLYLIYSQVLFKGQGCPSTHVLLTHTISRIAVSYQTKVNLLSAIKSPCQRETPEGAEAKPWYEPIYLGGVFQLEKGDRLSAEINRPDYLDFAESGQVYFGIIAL
Assay: SPR, scFv
Expressed in M⁻¹ s⁻¹, but write only the number.

Vκ1/VH4 consensus (T24K, T84S) λ-capped (TNF-specific scFv) (scFv, scFv; also called Vκ1/VH4mut; mutant variant of Vκ1/VH4) scFv: DIQMTQSPSSLSASVGDRVTITCQASQSISDWLAWYQQKPGKAPKLLIYGASRLASGVPSRFSGSGSGTDFTLTISSLQPEDFATYYCQQGWSDSYVDNLFGGGTKLTVLGGGGGSGGGGSGGGGSGGGGSQVQLQESGPGLVKPSETLSLTCKVSGFSLSSGAMSWIRQPPGKGLEWIGVIISSGATYYASWAKGRVTISVDSSKNQFSLKLSSVTAADTAVYYCARGGPDDSNSMGTFDPWGQGTLVTVSS: 764000
Vκ3/VH4 consensus λ-capped (TNF-specific scFv) (scFv, scFv) scFv: DIVLTQSPATLSLSPGERATLSCQASQSISDWLAWYQQKPGQAPRLLIYGASRLASGVPARFSGSGSGTDFTLTISSLEPEDFAVYYCQQGWSDSYVDNLFGGGTKLTVLGGGGGSGGGGSGGGGSGGGGSQVQLQESGPGLVKPSETLSLTCTVSGFSLSSGAMSWIRQPPGKGLEWIGVIISSGATYYASWAKGRVTISVDTSKNQFSLKLSSVTAADTAVYYCARGGPDDSNSMGTFDPWGQGTLVTVSS: 440000
Vκ3/VH4 consensus (T24K, T84S) λ-capped (TNF-specific scFv) (scFv, scFv; also called Vκ3/VH4mut) scFv: DIVLTQSPATLSLSPGERATLSCQASQSISDWLAWYQQKPGQAPRLLIYGASRLASGVPARFSGSGSGTDFTLTISSLEPEDFAVYYCQQGWSDSYVDNLFGGGTKLTVLGGGGGSGGGGSGGGGSGGGGSQVQLQESGPGLVKPSETLSLTCKVSGFSLSSGAMSWIRQPPGKGLEWIGVIISSGATYYASWAKGRVTISVDSSKNQFSLKLSSVTAADTAVYYCARGGPDDSNSMGTFDPWGQGTLVTVSS: 390000

Now consider the entry below.
Exam item: # kon lookup, item Vκ1/VH4 consensus λ-capped (TNF-specific scFv) (scFv, scFv; also called capped Vκ1/VH4 consensus molecule) scFv: DIQMTQSPSSLSASVGDRVTITCQASQSISDWLAWYQQKPGKAPKLLIYGASRLASGVPSRFSGSGSGTDFTLTISSLQPEDFATYYCQQGWSDSYVDNLFGGGTKLTVLGGGGGSGGGGSGGGGSGGGGSQVQLQESGPGLVKPSETLSLTCTVSGFSLSSGAMSWIRQPPGKGLEWIGVIISSGATYYASWAKGRVTISVDTSKNQFSLKLSSVTAADTAVYYCARGGPDDSNSMGTFDPWGQGTLVTVSS
Marked response: 631000
